# System tested: OR8/OR7 (Anopheles gambiae, UniProt Q7PUT5+Q7QCC7)
# Sequence (Q7QCC7 whole entry): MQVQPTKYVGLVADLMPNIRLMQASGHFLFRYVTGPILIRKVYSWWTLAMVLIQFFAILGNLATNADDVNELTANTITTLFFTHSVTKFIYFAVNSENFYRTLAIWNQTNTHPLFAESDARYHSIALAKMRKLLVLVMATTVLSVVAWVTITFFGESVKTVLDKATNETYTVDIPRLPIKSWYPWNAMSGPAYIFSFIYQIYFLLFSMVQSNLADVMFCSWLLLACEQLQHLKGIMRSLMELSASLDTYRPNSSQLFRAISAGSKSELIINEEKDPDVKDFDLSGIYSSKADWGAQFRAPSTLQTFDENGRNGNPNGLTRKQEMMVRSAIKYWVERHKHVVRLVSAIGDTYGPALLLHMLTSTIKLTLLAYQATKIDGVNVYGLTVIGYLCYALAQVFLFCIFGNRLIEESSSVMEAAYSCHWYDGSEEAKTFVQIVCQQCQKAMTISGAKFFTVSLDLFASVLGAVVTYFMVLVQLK
# Sequence (Q7PUT5 entry or part of it): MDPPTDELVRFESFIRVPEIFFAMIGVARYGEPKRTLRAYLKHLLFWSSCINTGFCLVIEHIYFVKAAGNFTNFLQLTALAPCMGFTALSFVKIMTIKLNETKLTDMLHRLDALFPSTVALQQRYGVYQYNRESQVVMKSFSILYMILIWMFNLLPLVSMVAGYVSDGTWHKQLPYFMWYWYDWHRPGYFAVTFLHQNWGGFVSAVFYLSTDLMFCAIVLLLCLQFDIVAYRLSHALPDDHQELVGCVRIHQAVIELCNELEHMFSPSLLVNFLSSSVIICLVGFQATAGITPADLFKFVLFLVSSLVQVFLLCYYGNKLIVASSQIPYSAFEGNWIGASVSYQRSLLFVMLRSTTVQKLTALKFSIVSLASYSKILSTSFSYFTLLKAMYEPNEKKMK
# Method description: Ca2+-imaging of stable HEK293T cell line OR8/OR7
# Assay type: cell-based
# Cond: HEK-293T; compound applied at 4 μM; read-out: Percent Inhibition OR8 OR7
Quick list: inhibition at 4 µM per entry.
Observed property: inhibition at 4 µM

compound="Cc1nn(-c2ccc(Cl)cc2)c(C)c1C(=O)NCc1ccccn1 [RU-0048608]" observed_property="inhibition at 4 µM" experimental_value="< 25%"
compound="COCCCN(Cc1c(-c2ccccc2)noc1N(C)C(C)C)C(=O)c1ccccc1OC [RU-0037003]" observed_property="inhibition at 4 µM" experimental_value="26 to 50%"
compound="CCOC(=O)C1CCCN(C(=O)c2csc(CSc3nnc(-c4cccc(OC)c4)n3-c3ccc(C)cc3)n2)C1 (stereo not shown) [RU-0071628]" observed_property="inhibition at 4 µM" experimental_value="26 to 50%"
compound="COc1ccccc1C(=O)C1CCCN(C(=O)c2cccc(N3CCOCC3)c2)C1 (stereo not shown) [RU-0029350]" observed_property="inhibition at 4 µM" experimental_value="26 to 50%"
compound="CC(C)CN(Cc1nccn1Cc1c(F)cccc1Cl)C(=O)c1ccc(F)cc1 [RU-0048054]" observed_property="inhibition at 4 µM" experimental_value="< 25%"
compound="O=C(C1CCC1)N(Cc1ccco1)Cc1nccn1Cc1ccccc1Cl [RU-0048066]" observed_property="inhibition at 4 µM" experimental_value="< 25%"
compound="COc1nc(OCC#N)nc(N2CCCCC2)n1 [RU-0006256]" observed_property="inhibition at 4 µM" experimental_value="51 to 74%"
compound="CCOC(=O)c1c(NC(C)=O)c(-c2ccc(OC)cc2)cn1Cc1ccccc1 [RU-0077733]" observed_property="inhibition at 4 µM" experimental_value="< 25%"
compound="COc1ccc(-c2nnc(SCc3ccc(C#N)cc3)n2-c2ccc(C)cc2)cc1 [RU-0046426]" observed_property="inhibition at 4 µM" experimental_value="26 to 50%"
compound="CC(=O)OCC(=O)NCC1Cc2cc(Oc3ccccc3)ccc2O1 (stereo not shown) [RU-0079120]" observed_property="inhibition at 4 µM" experimental_value="< 25%"

---

IC50 values, listed per item
# System tested: mOREG (Mus musculus, UniProt Q920P2)
# Sequence (Q920P2 1-313): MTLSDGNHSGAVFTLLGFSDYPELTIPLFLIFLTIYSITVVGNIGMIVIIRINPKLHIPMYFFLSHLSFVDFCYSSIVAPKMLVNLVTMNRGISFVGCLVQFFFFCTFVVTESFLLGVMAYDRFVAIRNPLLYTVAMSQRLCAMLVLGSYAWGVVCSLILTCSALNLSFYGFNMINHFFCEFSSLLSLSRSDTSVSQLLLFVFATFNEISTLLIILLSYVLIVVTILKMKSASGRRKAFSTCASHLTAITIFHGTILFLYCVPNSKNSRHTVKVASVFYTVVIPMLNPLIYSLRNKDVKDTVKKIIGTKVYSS
# Method description: Ca2+-imaging, control receptor mOREG
# Format: cell-based
# Cond: Table B
Observed property: IC50

compound="COc1ccc(-c2nnc(SCc3ccc(C#N)cc3)n2-c2ccc(C)cc2)cc1 [RU-0046426]" experimental_value="> 1000 nM"
compound="CCN(CC)c1onc(-c2ccccc2)c1CN(CC1CCCO1)C(=O)c1ccc2c(c1)OCO2 (stereo not shown) [RU-0036875]" experimental_value="> 1000 nM"
compound="CCN(CC)C(=O)Oc1ccc2c(ccn2Cc2cccc(C)c2)c1NC(=O)[C@H](C)OC(C)=O [RU-0075468]" experimental_value="< 100 nM"
compound="CCn1c(C)c(C(=O)CN(CC2CCCO2)C(=O)C2C[C@H]2c2ccccc2)c(C)c1C(=O)OC (stereo partly shown) [RU-0071273]" experimental_value="100 to 1000 nM"

---

# System tested: TRP channel (TRPM8) (Mus musculus, UniProt Q8R4D5)
# Construct: Full-length cDNAs for mosquito (Anopheles gambiae) odorant receptor (OR1, OR2, OR7, OR8, OR28), and fly (Drosophila melanogaster) odorant receptor (Or47a, Or83b), mouse TRP channel (TRPM8); expressed in transfected cells
# Sequence (Q8R4D5 whole entry): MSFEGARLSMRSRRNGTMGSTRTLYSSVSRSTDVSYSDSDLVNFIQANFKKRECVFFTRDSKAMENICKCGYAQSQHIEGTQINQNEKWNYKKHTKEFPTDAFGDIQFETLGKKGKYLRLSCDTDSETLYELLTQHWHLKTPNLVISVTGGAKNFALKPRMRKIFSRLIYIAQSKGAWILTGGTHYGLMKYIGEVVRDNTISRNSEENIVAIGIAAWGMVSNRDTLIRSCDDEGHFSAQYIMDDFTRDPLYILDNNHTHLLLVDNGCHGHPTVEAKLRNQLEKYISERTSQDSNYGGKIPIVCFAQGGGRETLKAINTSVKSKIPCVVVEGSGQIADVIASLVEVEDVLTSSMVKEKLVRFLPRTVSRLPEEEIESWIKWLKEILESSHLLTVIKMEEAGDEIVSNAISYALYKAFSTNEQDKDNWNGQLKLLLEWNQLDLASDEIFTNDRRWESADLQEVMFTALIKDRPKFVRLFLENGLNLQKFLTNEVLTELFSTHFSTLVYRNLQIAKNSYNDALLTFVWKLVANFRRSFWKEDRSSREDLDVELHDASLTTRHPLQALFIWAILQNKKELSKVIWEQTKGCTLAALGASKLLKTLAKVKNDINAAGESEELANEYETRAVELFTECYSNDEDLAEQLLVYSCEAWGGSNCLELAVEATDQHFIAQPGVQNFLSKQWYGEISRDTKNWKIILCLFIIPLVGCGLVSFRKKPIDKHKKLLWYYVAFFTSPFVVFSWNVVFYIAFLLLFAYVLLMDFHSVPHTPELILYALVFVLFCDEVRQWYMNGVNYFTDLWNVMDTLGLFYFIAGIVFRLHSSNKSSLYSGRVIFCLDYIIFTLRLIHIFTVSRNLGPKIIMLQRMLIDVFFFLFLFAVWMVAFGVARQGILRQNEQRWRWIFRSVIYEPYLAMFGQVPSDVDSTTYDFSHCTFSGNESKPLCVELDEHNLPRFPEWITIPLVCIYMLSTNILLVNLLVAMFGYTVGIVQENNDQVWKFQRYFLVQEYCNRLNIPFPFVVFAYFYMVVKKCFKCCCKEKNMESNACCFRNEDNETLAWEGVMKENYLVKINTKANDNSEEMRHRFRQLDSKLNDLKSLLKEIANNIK
# Method description: Ca2+-imaging of stable HEK293T cell line TRPM8
# Type: cell-based
# Cond: HEK-293T; compound applied at 4 μM; read-out: Percent Inhibition TRPM8
Measured inhibition at 4 µM values are reported for all entries that follow.
Observed property: inhibition at 4 µM

molecule="CCN(C)c1onc(-c2ccccc2)c1CN(CCCOC)C(=O)c1ccco1 [RU-0051926]" system_tested="TRP channel (TRPM8) (Mus musculus, UniProt Q8R4D5)" experimental_value="< 25%"
molecule="COCCNC(=O)c1ccc(CSc2nnc(-c3ccc(C)cc3)n2-c2ccccc2C)cc1 [RU-0053556]" system_tested="TRP channel (TRPM8) (Mus musculus, UniProt Q8R4D5)" experimental_value="26 to 50%"
molecule="CCCCc1nc(CN2CCc3c([nH]c4ccccc34)C2c2cccc(OC)c2OC)c[nH]1 (stereo not drawn) [RU-0031879]" system_tested="TRP channel (TRPM8) (Mus musculus, UniProt Q8R4D5)" experimental_value="26 to 50%"
molecule="N#Cc1ccccc1C(=O)N1CCOC(COCc2c(Cl)cccc2Cl)C1 (stereo not drawn) [RU-0050405]" system_tested="TRP channel (TRPM8) (Mus musculus, UniProt Q8R4D5)" experimental_value="< 25%"
molecule="Cc1cc(C)c(Cn2ccnc2CN(C(=O)c2ccccc2F)C(C)C)c(C)c1 [RU-0048001]" system_tested="TRP channel (TRPM8) (Mus musculus, UniProt Q8R4D5)" experimental_value="26 to 50%"
molecule="CCNc1nc(NC(C)C)nc(N(C#N)Cc2ccccc2)n1 [RU-0015806]" system_tested="TRP channel (TRPM8) (Mus musculus, UniProt Q8R4D5)" experimental_value="26 to 50%"
molecule="Cc1ccccc1C(=O)N[C@@H]1CCCCC1NC(=O)C1CCN(C(=O)C23CC4CC(CC(C4)C2)C3)CC1 (stereo partly drawn) [RU-0045351]" system_tested="TRP channel (TRPM8) (Mus musculus, UniProt Q8R4D5)" experimental_value="< 25%"
molecule="COc1ccc(N2CCN(C(=O)C3CC=CCC3C(=O)NC(c3ccccc3)c3ccccn3)CC2)cc1 (stereo not drawn) [RU-0026507]" system_tested="TRP channel (TRPM8) (Mus musculus, UniProt Q8R4D5)" experimental_value="< 25%"
molecule="CN(C)c1ccc(C(=O)N2CCOC(COCc3ccccc3F)C2)cc1 (stereo not drawn) [RU-0050325]" system_tested="TRP channel (TRPM8) (Mus musculus, UniProt Q8R4D5)" experimental_value="< 25%"
molecule="COc1ccccc1CC(=O)N1CCOC(COc2ccc(C)cc2)C1 (stereo not drawn) [RU-0050390]" system_tested="TRP channel (TRPM8) (Mus musculus, UniProt Q8R4D5)" experimental_value="< 25%"
molecule="CCOC(=O)C(c1cccc(OC)c1)C1C=CC(NC(=O)c2cccs2)C1 (stereo not drawn) [RU-0074560]" system_tested="TRP channel (TRPM8) (Mus musculus, UniProt Q8R4D5)" experimental_value="< 25%"
molecule="COCCN(Cc1nccn1Cc1c(F)cccc1Cl)C(=O)CCc1ccccc1 [RU-0058550]" system_tested="TRP channel (TRPM8) (Mus musculus, UniProt Q8R4D5)" experimental_value="< 25%"
molecule="Cc1cc(C)c2c(c1C(=O)N1CCC3(CC1)C(=O)NCN3c1ccccc1)CC(C)(C)C2=O [RU-0025771]" system_tested="TRP channel (TRPM8) (Mus musculus, UniProt Q8R4D5)" experimental_value="26 to 50%"
molecule="COc1ccccc1CCC(=O)N1CCC(CCC(=O)Nc2ccccc2)CC1 [RU-0032455]" system_tested="TRP channel (TRPM8) (Mus musculus, UniProt Q8R4D5)" experimental_value="< 25%"
molecule="O=C1CN(S(=O)(=O)c2c(F)cc(F)cc2F)CC2c3cccc(F)c3CCN12 (stereo not drawn) [RU-0076832]" system_tested="TRP channel (TRPM8) (Mus musculus, UniProt Q8R4D5)" experimental_value="< 25%"
molecule="COc1ccc(-c2nnc(SCc3ccc(C#N)cc3)n2-c2ccc(C)cc2)cc1 [RU-0046426]" system_tested="TRP channel (TRPM8) (Mus musculus, UniProt Q8R4D5)" experimental_value="< 25%"
molecule="COc1nc(NC(C)C)nc(NC(C)C)n1 [RU-0001534]" system_tested="TRP channel (TRPM8) (Mus musculus, UniProt Q8R4D5)" experimental_value="< 25%"
molecule="COC(=O)C(Cc1ccccc1)NC(=O)C1CC1(c1ccccc1)c1ccccc1 (stereo not drawn) [RU-0028029]" system_tested="TRP channel (TRPM8) (Mus musculus, UniProt Q8R4D5)" experimental_value="26 to 50%"
